molecular target: COS-7/AMY3 (human calcitonin receptor (CTR) and RAMP3) (Homo sapiens, UniProt O60896+P30988); construct: expressed in transfected cells; host or cells: COS-7; experiment: Amylin Receptor cAMP Assay II; assay type: cell-based; settings: values marked **: Amylin Receptor cAMP Assay II; COS-7/AMY3 cells, cAMP dynamic 2 kit, 30 min; read-out: Amylin Receptor cAMP Stimulation Activity: EC50
Sequence (P30988 25-474): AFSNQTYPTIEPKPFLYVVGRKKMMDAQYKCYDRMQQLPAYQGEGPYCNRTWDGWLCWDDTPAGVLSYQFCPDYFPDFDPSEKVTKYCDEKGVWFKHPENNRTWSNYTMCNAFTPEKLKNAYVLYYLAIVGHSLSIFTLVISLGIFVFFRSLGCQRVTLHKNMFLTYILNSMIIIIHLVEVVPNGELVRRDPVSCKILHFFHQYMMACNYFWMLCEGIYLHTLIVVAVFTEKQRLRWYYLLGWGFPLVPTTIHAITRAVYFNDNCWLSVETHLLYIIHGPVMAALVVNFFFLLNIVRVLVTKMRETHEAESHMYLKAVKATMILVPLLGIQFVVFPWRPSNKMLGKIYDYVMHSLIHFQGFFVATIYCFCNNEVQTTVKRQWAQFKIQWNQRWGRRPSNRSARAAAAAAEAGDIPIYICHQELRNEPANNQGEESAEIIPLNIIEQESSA
Sequence (O60896 24-148): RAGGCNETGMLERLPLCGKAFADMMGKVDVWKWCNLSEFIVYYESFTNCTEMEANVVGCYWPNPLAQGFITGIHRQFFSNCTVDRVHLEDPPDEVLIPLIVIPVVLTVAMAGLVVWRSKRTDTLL
EC50 for assorted compounds
property.name: EC50 (nM)

                                   compound  property_name  quantitative_result
0  O=C1c2c(nc(CCc3ccc(F)cc3)c(-c3n[nH]c(=O)o3)c2-c2cnc3c(ccn3Cc3ncc(F)cc3F)c2)[C@@H]2CCCN12           EC50                  467
1  O=C1c2c(nc(CCc3ccc(F)cc3)c(-c3noc(=O)[nH]3)c2-c2cc3ccnc(NCc4ccc(F)c(F)c4)c3s2)[C@@H]2CCCN12           EC50                 38.3
2  O=C1c2c(nc(CCc3ccc(F)cc3)c(-c3noc(=O)[nH]3)c2-c2cc3ccnc(NCc4ccc(F)c(Cl)c4)c3s2)[C@@H]2CCCN12           EC50                 54.1
3  COc1cccc2c1CC[C@H]2Nc1nccc2cc(-c3c(-c4n[nH]c(=O)o4)c(CCc4ccc(F)cc4)nc4c3S(=O)(=O)CC4(C)C(C)C)sc12 (stereo partly drawn)           EC50                11700
4  CC(c1ccc(C#N)c(F)c1)n1ccc2cc(-c3c4c(nc(CCC5CCOCC5)c3-c3cc(=O)[nH]o3)[C@@H]3CCCN3C4=O)ccc21 (stereo partly drawn)           EC50                  266
5  COc1cccc2c1CC[C@H]2Nc1nccc2cc(-c3c4c(nc(CCc5ccccc5C(F)(F)F)c3-c3noc(=O)[nH]3)[C@@H]3CCCN3C4=O)sc12           EC50                 50.5
